subject.of.test: Bromodomain-containing protein 4 (Homo sapiens, UniProt O60885)
experiment.description: Binding affinity to BRD4 bromodomain 2 (E352 to M457 amino acids) (unknown origin) using Alexa647-labeled BET-inhibitor as fluorescent probe by bromodomain TR-FRET binding assay
quantity.kind: Ki (nM)

I = Cn1cc2c3c(c[nH]c(=O)c31)-c1cc(CS(C)(=O)=O)ccc1N(c1ccc(F)cc1)C2
II = Cn1cc2c3c(c[nH]c3c1=O)CN(c1ccc(F)cc1F)c1ccc(CS(C)(=O)=O)cc1-2
III = Cn1cc2c3c(c[nH]c3c1=O)CN(c1ccccn1)c1ccc(CS(C)(=O)=O)cc1-2
From the items above, give an ordering by Ki that starts at the lowest reported number. Write the labels in rank order as requested.
II, III, I
(II: 0.73 nM, III: 1.5 nM, I: 2.5 nM)

====

experiment.description: Intrinsic unbound clearance in mouse liver microsomes
Type: ADME, microsome
quantity.kind: CL free (mL/min/kg)

Use the examples below as a reference point.
>>> numeric_readout("Cn1cc2c3c(c[nH]c(=O)c31)-c1cc(CS(C)(=O)=O)ccc1N(c1ccccn1)C2")
140
>>> numeric_readout("Cn1cc2c3c(c[nH]c(=O)c31)-c1cc(CS(C)(=O)=O)ccc1N(c1ccc(F)cc1)C2")
317
>>> numeric_readout("Cn1cc2c3c(c[nH]c3c1=O)CN(c1ccc(F)cc1F)c1ccc(CS(C)(=O)=O)cc1-2")
533
>>> numeric_readout("Cn1cc2c3c(c[nH]c3c1=O)CN(CC1CC1)c1ccc(CS(C)(=O)=O)cc1-2")
300
>>> numeric_readout("Cn1cc2c3c(c[nH]c3c1=O)CN(C1CCC(F)(F)CC1)c1ccc(CS(C)(=O)=O)cc1-2")
267

A = Cn1cc2c3c(c[nH]c3c1=O)CN(c1ccccn1)c1ccc(CS(C)(=O)=O)cc1-2
B = Cn1cc2c3c(c[nH]c3c1=O)CN(c1ccc(F)cc1)c1ccc(CS(C)(=O)=O)cc1-2
Lab note: check whether A or B shows the higher recorded CL free. # reply format: chosen label
B
(B: 1400 mL/min/kg, A: 233 mL/min/kg)

====

subject.of.test: Bromodomain testis-specific protein (Homo sapiens, UniProt Q58F21)
experiment.description: Binding affinity to BRDT bromodomain 1 to 2 (N21to P380 amino acids) (unknown origin) using Alexa647-labeled BET-inhibitor as fluorescent probe by bromodomain TR-FRET binding assay
quantity.kind: Ki (nM)

>>> numeric_readout("Cn1cc2c3c(c[nH]c(=O)c31)-c1cc(CS(C)(=O)=O)ccc1N(c1ccc(F)cc1)C2")
5.9

I = Cn1cc2c3c(c[nH]c3c1=O)CN(c1ccc(F)cc1F)c1ccc(CS(C)(=O)=O)cc1-2
II = Cn1cc2c3c(c[nH]c3c1=O)CN(c1ccccn1)c1ccc(CS(C)(=O)=O)cc1-2
Sort I and II by Ki descending and give the first. Pick one and reply with its label.
I
(I: 4.2 nM, II: 0.69 nM)

====

Quick reference for pEC50 among some compounds
Tested on: MX1
experiment.description: Antiproliferative activity against human MX1 cells incubated for 72 hrs by cell-titer Glo assay
Format: functional, cell-based
measurement.parameters: MX1, 72 h
Reminder that pEC50 is minus the log10 of a molar concentration.

>>> numeric_readout("Cn1cc2c3c(c[nH]c3c1=O)CN(CC1CC1)c1ccccc1-2")
8.14

Name the recorded pEC50 for Cn1cc(-c2ccccc2NCC2CC2)c2cc[nH]c2c1=O .
5.85

Recorded pEC50 for CCS(=O)(=O)Nc1ccc2c(c1)-c1c[nH]c(=O)c3c1c(cn3C)CN2c1ccc(F)cc1 , please?
8.25

// pEC50 lookup, key: Cn1cc2c3c(c[nH]c(=O)c31)CN(CC1CC1)c1ccc(CS(C)(=O)=O)cc1-2
7.72

Report pEC50 for Cn1cc2c3c(c[nH]c(=O)c31)-c1cc(CS(C)(=O)=O)ccc1N(c1ccccn1)C2 please.
8.26
